All figures here come from ChEMBL document CHEMBL4715808.

measurement_target: Metabotropic glutamate receptor 4 (Homo sapiens)
Sequence (Q14833 whole entry): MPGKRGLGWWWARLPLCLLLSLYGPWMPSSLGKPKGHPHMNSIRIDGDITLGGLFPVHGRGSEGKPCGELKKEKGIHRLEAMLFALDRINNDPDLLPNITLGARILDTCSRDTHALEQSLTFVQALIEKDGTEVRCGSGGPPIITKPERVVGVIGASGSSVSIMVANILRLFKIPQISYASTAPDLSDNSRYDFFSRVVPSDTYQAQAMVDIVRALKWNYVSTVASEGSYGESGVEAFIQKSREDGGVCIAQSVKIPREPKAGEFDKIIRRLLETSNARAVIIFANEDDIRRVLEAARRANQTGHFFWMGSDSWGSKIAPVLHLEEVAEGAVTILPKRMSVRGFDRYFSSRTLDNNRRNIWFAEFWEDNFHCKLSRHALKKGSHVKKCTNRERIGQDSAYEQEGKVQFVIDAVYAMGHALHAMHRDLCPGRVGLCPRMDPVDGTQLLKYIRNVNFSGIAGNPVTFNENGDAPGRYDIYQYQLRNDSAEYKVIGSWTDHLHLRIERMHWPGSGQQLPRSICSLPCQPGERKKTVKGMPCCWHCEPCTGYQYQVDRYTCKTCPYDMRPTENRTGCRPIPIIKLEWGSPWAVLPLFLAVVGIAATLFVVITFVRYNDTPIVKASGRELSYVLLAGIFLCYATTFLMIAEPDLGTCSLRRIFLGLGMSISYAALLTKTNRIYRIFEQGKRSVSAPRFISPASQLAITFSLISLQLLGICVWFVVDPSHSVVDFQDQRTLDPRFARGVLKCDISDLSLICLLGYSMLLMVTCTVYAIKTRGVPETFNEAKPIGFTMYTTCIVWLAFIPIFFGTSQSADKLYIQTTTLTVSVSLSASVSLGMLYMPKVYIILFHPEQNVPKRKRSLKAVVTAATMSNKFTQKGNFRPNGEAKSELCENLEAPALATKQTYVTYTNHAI
assay_text: Antagonist activity human recombinant mGlu4 stably expressed in golden hamster AV12 cell membrane co-expressing Galpha15 assessed as reduction in glutamate-induced calcium influx incubated for 90 to 120 min by Fluo-4-AM dye based FLIPR assay
pIC50: −log10 of the molar value.
readout_label: pIC50

Prompt: Could you please provide reported pIC50 for Cl.N[C@]1(C(=O)O)[C@@H]2[C@@H](C(=O)O)[C@@H]2[C@H](O)[C@H]1CSc1ccc(F)c(F)c1 ? Thanks!
Response: < 4.90

====

Metabotropic glutamate receptor 2 (Homo sapiens): reported pKi for various molecules.
Sequence (Q14416 whole entry): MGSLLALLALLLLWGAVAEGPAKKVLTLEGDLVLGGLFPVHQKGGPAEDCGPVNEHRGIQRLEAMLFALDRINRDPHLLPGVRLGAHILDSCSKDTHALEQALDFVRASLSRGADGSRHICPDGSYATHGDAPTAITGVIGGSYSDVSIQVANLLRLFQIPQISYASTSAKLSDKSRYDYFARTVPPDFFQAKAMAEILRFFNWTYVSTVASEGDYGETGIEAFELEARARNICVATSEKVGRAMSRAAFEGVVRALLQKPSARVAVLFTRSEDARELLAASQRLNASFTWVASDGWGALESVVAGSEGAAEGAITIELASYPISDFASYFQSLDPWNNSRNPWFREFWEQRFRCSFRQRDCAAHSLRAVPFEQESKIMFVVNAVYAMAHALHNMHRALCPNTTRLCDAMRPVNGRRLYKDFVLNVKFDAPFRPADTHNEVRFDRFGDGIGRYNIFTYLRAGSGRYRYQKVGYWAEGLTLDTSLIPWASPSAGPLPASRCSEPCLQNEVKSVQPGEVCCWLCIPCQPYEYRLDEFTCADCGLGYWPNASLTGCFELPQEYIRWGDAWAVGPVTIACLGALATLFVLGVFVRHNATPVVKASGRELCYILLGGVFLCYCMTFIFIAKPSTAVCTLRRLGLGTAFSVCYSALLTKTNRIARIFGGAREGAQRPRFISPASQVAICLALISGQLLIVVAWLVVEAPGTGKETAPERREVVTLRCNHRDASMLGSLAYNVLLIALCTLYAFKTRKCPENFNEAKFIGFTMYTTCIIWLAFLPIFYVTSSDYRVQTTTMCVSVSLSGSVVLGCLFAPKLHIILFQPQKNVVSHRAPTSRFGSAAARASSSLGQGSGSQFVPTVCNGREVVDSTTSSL
pKi is defined as minus the log10 of a concentration measured in mol/L.

Prompt: Give pKi; test system Metabotropic glutamate receptor 2 (Homo sapiens); molecule N[C@]1(C(=O)O)[C@@H]2[C@@H](C(=O)O)[C@@H]2[C@H](O)[C@H]1CSc1ccc(F)cc1
Response: 7.98

Prompt: Please respond with reported pKi (system Metabotropic glutamate receptor 2 (Homo sapiens)) for N[C@]1(C(=O)O)[C@@H]2[C@@H](C(=O)O)[C@@H]2[C@H](O)[C@H]1CSc1ccccc1F .
Response: 6.14

Prompt: Report value only: pKi, Metabotropic glutamate receptor 2 (Homo sapiens), N[C@]1(C(=O)O)[C@@H]2[C@@H](C(=O)O)[C@@H]2[C@H](O)[C@H]1CSc1ccc(Cl)c(Cl)c1
Response: 8.08

Prompt: // fetch pKi for N[C@]1(C(=O)O)[C@@H]2[C@@H](C(=O)O)[C@@H]2[C@H](O)[C@H]1CSCc1ccc(Cl)c(Cl)c1 ; system: Metabotropic glutamate receptor 2 (Homo sapiens)
Response: 7.69

Prompt: Provide measured pKi on Metabotropic glutamate receptor 2 (Homo sapiens) for Cc1cc(SC[C@@H]2[C@@H](O)[C@H]3[C@H](C(=O)O)[C@H]3[C@]2(N)C(=O)O)ccc1F please.
Response: 8.05

====

measurement_target: Metabotropic glutamate receptor 2 (Homo sapiens)
Field: label. Allowed values: fulfilled (IC50 < 50 nM) or not fulfilled (IC50 >= 50 nM).

Prompt: For this compound, is IC50 lower than 50 nM? Cc1cc(SC[C@@H]2[C@@H](Sc3nc[nH]n3)[C@H]3[C@H](C(=O)O)[C@H]3[C@]2(N)C(=O)O)ccc1F
Response: fulfilled

Prompt: Does the reported IC50 of Cc1cc(SC[C@@H]2[C@@H](N)[C@H]3[C@H](C(=O)O)[C@H]3[C@]2(N)C(=O)O)ccc1F stay below 50 nM?
Response: fulfilled

Prompt: Does the reported IC50 of the following compound sit strictly below 50 nM? N[C@]1(C(=O)O)[C@@H]2[C@@H](C(=O)O)[C@@H]2[C@H](O)[C@H]1CSc1cccc(F)c1
Response: not fulfilled

Prompt: Bench note: check whether N[C@]1(C(=O)O)[C@@H]2[C@@H](C(=O)O)[C@@H]2[C@H](O)[C@H]1CSc1ccccc1F shows IC50 below 50 nM
Response: not fulfilled

Prompt: IC50 strictly < 50 nM for this compound? Cc1ccc(SC[C@@H]2[C@@H](O)[C@H]3[C@H](C(=O)O)[C@H]3[C@]2(N)C(=O)O)cc1C
Response: fulfilled

Prompt: Field: below-cutoff. Rule: recorded IC50 strictly less than 50 nM. Subject: N[C@]1(C(=O)O)[C@@H]2[C@@H](C(=O)O)[C@@H]2[C@H](O)[C@H]1CSc1ccc(Cl)c(Cl)c1
Response: fulfilled

Prompt: Lab log: compare recorded IC50 with 50 nM; is it strictly lower for CC(C)SC[C@@H]1[C@@H](O)[C@H]2[C@H](C(=O)O)[C@H]2[C@]1(N)C(=O)O ?
Response: not fulfilled

Prompt: Does the reported IC50 of N[C@]1(C(=O)O)[C@@H]2[C@@H](C(=O)O)[C@@H]2[C@H](O)[C@H]1CSc1ccc(F)cc1 stay below 50 nM?
Response: fulfilled

Prompt: Please indicate whether the reported IC50 of Cc1cc(SC[C@@H]2[C@@H](O)[C@H]3[C@H](C(=O)O)[C@H]3[C@]2(N)C(=O)O)ccc1F is strictly below 50 nM.
Response: fulfilled

Prompt: Lab note: confirm whether the reported IC50 for this compound is below 50 nM, equality not counting. compound: CC(=O)N[C@H]1[C@H]2[C@H](C(=O)O)[C@H]2[C@](N)(C(=O)O)[C@@H]1CSc1ccc(F)c(C)c1
Response: fulfilled

====

assay_text: AUC (0 to 24 hrs) in CD1 mouse plasma in fasting state at 1.1 mg/kg, ip administered as single dose measured after 24 hrs by LC-MS/MS analysis
Format: ADME, organism-based
Set-up: route intraperitoneal, dose 1.1 mg/kg, time 24 hrs
readout_label: AUC(0-t) at 24 h (µM·h)
Just the number in µM·h, nothing appended.

Prompt: Hello, please tell me recorded AUC(0-t) at 24 h for this one: Cl.N[C@]1(C(=O)O)[C@@H]2[C@@H](C(=O)O)[C@@H]2[C@H](O)[C@H]1CSc1ccc(F)c(F)c1
Response: 5.03

====

assay_text: Clearance in male Sprague-Dawley rat at 0.3 to 10 mg/kg, iv
Assay type: ADME, organism-based
test_conditions: in vivo, dose 0.3-10 mg/kg
readout_label: clearance (mL/min/kg)
Please give a number only; it is taken to be in mL/min/kg.

Prompt: Quickly give me recorded clearance for Cl.N[C@]1(C(=O)O)[C@@H]2[C@@H](C(=O)O)[C@@H]2[C@H](O)[C@H]1CSc1ccc(F)c(F)c1
Response: 5.83

====

measurement_target: UniProt Q13255
Sequence (Q13255 whole entry): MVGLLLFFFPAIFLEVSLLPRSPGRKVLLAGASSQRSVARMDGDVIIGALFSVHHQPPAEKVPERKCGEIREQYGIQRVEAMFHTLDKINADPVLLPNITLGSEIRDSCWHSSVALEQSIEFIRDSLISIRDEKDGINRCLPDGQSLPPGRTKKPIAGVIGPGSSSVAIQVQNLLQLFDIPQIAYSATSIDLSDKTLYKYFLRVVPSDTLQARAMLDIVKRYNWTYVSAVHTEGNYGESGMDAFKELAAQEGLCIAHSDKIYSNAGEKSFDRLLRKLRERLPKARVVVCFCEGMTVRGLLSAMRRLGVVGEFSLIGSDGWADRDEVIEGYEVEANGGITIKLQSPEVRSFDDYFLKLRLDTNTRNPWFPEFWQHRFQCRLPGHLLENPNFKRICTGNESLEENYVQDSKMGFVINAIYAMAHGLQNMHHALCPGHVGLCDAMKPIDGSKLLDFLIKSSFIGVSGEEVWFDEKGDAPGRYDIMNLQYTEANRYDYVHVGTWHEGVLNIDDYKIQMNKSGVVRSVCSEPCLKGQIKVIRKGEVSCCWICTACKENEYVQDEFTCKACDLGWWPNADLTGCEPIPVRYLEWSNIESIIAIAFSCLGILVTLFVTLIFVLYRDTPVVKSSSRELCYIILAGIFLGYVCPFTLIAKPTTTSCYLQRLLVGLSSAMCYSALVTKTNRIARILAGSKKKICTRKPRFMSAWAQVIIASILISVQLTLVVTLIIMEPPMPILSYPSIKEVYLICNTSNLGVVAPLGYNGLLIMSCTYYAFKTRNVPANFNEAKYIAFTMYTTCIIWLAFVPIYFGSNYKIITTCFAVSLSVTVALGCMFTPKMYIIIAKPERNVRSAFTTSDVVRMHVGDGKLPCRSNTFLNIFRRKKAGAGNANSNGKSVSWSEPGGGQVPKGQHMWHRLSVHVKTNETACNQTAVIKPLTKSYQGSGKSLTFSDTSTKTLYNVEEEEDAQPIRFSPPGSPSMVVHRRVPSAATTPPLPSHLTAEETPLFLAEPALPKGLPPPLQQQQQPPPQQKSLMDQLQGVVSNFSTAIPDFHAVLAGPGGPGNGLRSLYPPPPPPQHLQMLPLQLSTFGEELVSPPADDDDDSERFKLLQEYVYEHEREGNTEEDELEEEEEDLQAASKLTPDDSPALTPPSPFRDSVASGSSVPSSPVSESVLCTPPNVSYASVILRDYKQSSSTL
assay_text: Agonist activity at human recombinant mGlu1 stably expressed in golden hamster AV12 cell membrane co-expressing Gq assessed as assessed as increase in calcium influx incubated for 90 to 120 min by Fluo-4-AM dye based FLIPR assay
readout_label: EC50

Prompt: Please report the measured EC50 for Cl.N[C@]1(C(=O)O)[C@@H]2[C@@H](C(=O)O)[C@@H]2[C@H](O)[C@H]1CSc1ccc(F)c(F)c1
Response: > 25 µM

====

measurement_target: Metabotropic glutamate receptor 5 (Homo sapiens)
Sequence (P41594 whole entry): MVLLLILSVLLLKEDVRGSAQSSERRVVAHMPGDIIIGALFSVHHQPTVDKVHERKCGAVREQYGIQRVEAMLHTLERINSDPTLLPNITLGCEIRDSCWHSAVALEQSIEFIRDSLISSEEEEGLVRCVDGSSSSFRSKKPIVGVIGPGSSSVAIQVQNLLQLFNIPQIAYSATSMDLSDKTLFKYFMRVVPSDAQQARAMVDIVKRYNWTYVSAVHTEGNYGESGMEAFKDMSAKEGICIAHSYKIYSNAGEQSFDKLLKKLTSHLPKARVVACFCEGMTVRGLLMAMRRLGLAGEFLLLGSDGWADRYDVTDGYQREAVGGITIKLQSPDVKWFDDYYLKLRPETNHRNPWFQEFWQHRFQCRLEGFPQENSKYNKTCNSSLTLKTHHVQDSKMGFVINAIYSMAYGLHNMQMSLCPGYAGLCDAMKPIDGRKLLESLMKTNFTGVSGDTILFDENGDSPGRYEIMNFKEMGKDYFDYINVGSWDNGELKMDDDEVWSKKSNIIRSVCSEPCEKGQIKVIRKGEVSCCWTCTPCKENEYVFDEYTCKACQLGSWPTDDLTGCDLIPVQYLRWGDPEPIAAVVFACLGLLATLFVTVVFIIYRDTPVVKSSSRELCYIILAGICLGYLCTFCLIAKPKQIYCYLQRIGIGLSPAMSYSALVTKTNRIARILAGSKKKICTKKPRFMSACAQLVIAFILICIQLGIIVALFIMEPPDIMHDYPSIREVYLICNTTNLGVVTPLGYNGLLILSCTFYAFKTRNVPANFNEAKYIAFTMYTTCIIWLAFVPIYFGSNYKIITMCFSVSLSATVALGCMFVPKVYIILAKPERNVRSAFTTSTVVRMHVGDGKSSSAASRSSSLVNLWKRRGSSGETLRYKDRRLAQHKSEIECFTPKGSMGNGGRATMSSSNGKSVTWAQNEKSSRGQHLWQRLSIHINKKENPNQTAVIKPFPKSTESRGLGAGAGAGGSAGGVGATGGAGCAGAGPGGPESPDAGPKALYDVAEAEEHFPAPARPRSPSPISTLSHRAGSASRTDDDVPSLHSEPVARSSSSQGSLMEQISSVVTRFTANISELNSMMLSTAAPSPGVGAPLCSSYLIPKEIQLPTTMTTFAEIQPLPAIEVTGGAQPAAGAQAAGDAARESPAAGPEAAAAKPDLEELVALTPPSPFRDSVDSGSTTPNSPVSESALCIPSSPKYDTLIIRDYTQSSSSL
assay_text: Antagonist activity at human recombinant mGlu5 stably expressed in golden hamster AV12 cell membrane co-expressing Gq assessed as reduction in glutamate-induced calcium influx incubated for 90 to 120 min by Fluo-4-AM dye based FLIPR assay
readout_label: IC50

Prompt: Retrieve IC50 measured for Cl.N[C@]1(C(=O)O)[C@@H]2[C@@H](C(=O)O)[C@@H]2[C@H](O)[C@H]1CSc1ccc(F)c(F)c1 and print it.
Response: > 12.5 µM

====

measurement_target: Metabotropic glutamate receptor 6 (Homo sapiens, UniProt O15303)
assay_text: Agonist activity at human recombinant mGlu6 stably expressed in golden hamster AV12 cell membrane co-expressing Galpha15 assessed as assessed as increase in calcium influx incubated for 90 to 120 min by Fluo-4-AM dye based FLIPR assay
readout_label: EC50

Prompt: Please report the measured EC50 for Cl.N[C@]1(C(=O)O)[C@@H]2[C@@H](C(=O)O)[C@@H]2[C@H](O)[C@H]1CSc1ccc(F)c(F)c1
Response: > 25 µM

====

measurement_target: UniProt:Q14832
Sequence (Q14832 whole entry): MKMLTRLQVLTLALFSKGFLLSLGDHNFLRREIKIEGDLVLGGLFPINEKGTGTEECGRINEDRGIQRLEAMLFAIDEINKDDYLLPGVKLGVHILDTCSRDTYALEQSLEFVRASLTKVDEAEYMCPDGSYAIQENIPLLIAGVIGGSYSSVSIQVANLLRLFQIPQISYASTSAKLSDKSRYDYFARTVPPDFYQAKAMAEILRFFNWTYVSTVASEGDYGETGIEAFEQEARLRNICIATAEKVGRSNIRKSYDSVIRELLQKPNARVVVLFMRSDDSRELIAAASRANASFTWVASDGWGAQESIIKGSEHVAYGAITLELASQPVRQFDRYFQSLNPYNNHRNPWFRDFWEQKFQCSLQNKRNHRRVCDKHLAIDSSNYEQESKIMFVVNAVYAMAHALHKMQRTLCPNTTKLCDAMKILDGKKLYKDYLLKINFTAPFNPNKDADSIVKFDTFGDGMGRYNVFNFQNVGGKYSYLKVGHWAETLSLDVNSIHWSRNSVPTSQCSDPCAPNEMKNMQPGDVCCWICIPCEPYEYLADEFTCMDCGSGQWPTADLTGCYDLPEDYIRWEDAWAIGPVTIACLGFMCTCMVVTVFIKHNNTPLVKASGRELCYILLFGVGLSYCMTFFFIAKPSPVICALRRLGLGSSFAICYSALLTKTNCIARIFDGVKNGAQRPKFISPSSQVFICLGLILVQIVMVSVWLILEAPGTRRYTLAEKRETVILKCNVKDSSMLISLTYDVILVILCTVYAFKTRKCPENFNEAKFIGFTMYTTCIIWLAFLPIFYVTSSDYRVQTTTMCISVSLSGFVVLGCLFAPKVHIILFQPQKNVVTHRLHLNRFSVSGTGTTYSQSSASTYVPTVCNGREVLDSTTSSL
assay_text: Antagonist activity at human recombinant mGlu3 receptor stably expressed in golden hamster AV12 cells co-expressing rat EAAT1 assessed as reduction in DCG IV-induced inhibition of forskolin-stimulated cAMP accumulation preincubated for 20 mins followed by incubation with cAMP-d2 conjugate and anti-cAMP cryptate for 1 hr by HTRF assay
Type: functional, cell-based
readout_label: IC50 (nM)
Write the answer as a number in nM, unit excluded.

Prompt: Query IC50 for N[C@]1(C(=O)O)[C@@H]2[C@@H](C(=O)O)[C@@H]2[C@H](O)[C@H]1CSc1cccc(F)c1
Response: 272

Prompt: Identify measured IC50 corresponding to N[C@]1(C(=O)O)[C@@H]2[C@@H](C(=O)O)[C@@H]2[C@H](O)[C@@H]1CSc1ccccc1
Response: 2410

Prompt: Specify reported IC50 for the molecule shown: N[C@]1(C(=O)O)[C@@H]2[C@@H](C(=O)O)[C@@H]2[C@H](O)[C@H]1CSc1ccccc1
Response: 202

Prompt: Retrieve IC50 measured for CC(=O)N[C@H]1[C@H]2[C@H](C(=O)O)[C@H]2[C@](N)(C(=O)O)[C@@H]1CSc1ccc(F)c(C)c1 and print it.
Response: 12.4

====

assay_text: Metabolic stability of compound in mouse hepatocytes assessed as parent compound loss at 2 uM
Type: ADME, cell-based, Hepatocyte
test_conditions: read-out: Drug degradation
readout_label: metabolised at 2 µM

Prompt: Tell me measured metabolised at 2 µM for Cl.N[C@]1(C(=O)O)[C@@H]2[C@@H](C(=O)O)[C@@H]2[C@H](O)[C@H]1CSc1ccc(F)c(F)c1 please.
Response: < 15%

====

assay_text: Cmax in CD1 mouse plasma in fasting state at 1.1 mg/kg, ip administered as single dose measured after 24 hrs by LC-MS/MS analysis
Assay type: ADME, organism-based
Parameters: route intraperitoneal, dose 1.1 mg/kg, time 24 hrs
readout_label: Cmax (µM)
Give a bare numeral; the unit µM is implied.

Prompt: Identify measured Cmax corresponding to Cl.N[C@]1(C(=O)O)[C@@H]2[C@@H](C(=O)O)[C@@H]2[C@H](O)[C@H]1CSc1ccc(F)c(F)c1
Response: 4.17
